# targetDesc: T1, CD226 (UniProt Q15762 19-247, limits assumed)
# T1 construct: also called related family member protein CD226
# T1 sequence (looked up): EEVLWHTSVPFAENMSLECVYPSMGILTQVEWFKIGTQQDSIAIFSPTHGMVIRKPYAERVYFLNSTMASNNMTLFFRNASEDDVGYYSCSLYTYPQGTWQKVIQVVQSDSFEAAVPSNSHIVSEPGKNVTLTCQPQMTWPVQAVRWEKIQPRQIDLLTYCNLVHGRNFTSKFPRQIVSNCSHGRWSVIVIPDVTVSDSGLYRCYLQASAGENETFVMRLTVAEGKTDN
# testSummary: ELISA EC50 assay

binder | binding result
3966C11 (antibody, human IgG1, V domains shown, constant regions correspond to those of H03-12 (human IgG1, kappa)) VH: EIQLVQSGSELKKPGASVKVSCKASGYTFTSYPMNWVRQAPGQGLEWMGWINTNTGNPTNAQGFTGRFVFSLDTSVSTAYLQISSLKAEDTAVYYCARVGGYGGYDYAFDIWGQGTMVTVSS VL: DIQLTQSPSFLSASVGDRVTITCRASQGISSYLAWYQQKPGKAPKLLIYAASTLQSGVPSRFSGSGSGTEFTLTISSLQPEDFATYYCQQLNSYPTFGGGTKLEIK | no binding
3965D08 (antibody, human IgG1, V domains shown, constant regions correspond to those of H03-12 (human IgG1, kappa)) VH: EVQLVQSGSELKKPGASVKVSCKASGYTFTSYPMNWVRQAPGQGLEWMGWINTNTGNPTYAQGFTGRFVFSLDTSVSTAYLQISSLKAEDTAVYYCARTGYSGSYYWFDPWGQGTLVTVSS VL: DIRLTQSPSFLSASVGDRVTITCRASQGISSYLAWYQQKPGKAPKFLIYAASTLQSGVPSRFSGSGSGTEFTLTISSLQPEDFATYYCQQLNSYLTFGQGTRLEIK | no binding
3964A06 (antibody, human IgG1, V domains shown) VH: EVQLVQSGSELKKPGASVKVSCKASGYTFTAYPMNWVRQAPGQGLEWMGWINTNTGNPTYAQGFTGRFVFSLDTSVSTAYLQISSLKAEDTAVYYCARVGGYSVYDYAFDIWGQGTMVTVSS VL: DIQLTQSPSFLSASVGDRVTITCRASQGISSYLAWYQQKPGKAPKLLIYAASTLQSGVPSRFSGSGSGTEFTLTISSLQPEDFATYYCQQLNSYPTFGGGTKVEIK | no binding
